# Test system: DLD-1 BRCA2(−/−) colorectal adenocarcinoma cells
# test: Cell viability assay (Cell Titer-Glo), DLD-1 BRCA2(−/−)
# Type: cell-based
# assaySetup: Homo sapiens, DLD-1, 168 h, 7 days, 200 cells/well
Structures can show the parent of a compound that is named as a salt.
quantityName: IC50

# value of IC50, DLD-1 BRCA2(−/−) colorectal adenocarcinoma cells, item CCc1cc2ncc(CN3CC4(C3)CN(c3ccc(C(=O)NC)nc3)C4)cc2[nH]c1=O [Compound No. 9, formate] = ≥ 3000 nM

Others:
# value of IC50, DLD-1 BRCA2(−/−) colorectal adenocarcinoma cells, item `CCc1cc2ncc(CN3CCCN(c4ccc(C(=O)NC)nc4)CC3)cc2[nH]c1=O` = ≥ 3000 nM

# value of IC50, DLD-1 BRCA2(−/−) colorectal adenocarcinoma cells, item CCc1cc2ncc(CN3CC4CN(c5ccc(C(=O)NC)nc5)CC4C3)cc2[nH]c1=O (centres unmarked) = 300 to 3000 nM

====

# Test system: DLD-1 BRCA2(−/−) colorectal adenocarcinoma cells
# test: Cell viability assay (Cell Titer-Glo), DLD-1 BRCA2(−/−)
# Format: cell-based
# assaySetup: Homo sapiens, DLD-1, 168 h, 7 days, 200 cells/well
Structures can show the parent of a compound that is named as a salt.
// values below are reported IC50

Worked cases, answers included:
Reported IC50 for `CCc1cc2ncc(CN3CC4CCC(C3)N4c3ccc(C(=O)NC)nc3)cc2[nH]c1=O` was ≥ 3000 nM

Reported IC50 for CCc1cc2ncc(CN3CC4(C3)CN(c3ccc(C(=O)NC)nc3C)C4)cc2[nH]c1=O [Compound No. 139, formate] was ≥ 3000 nM

Reported IC50 for `CCc1cc2ncc(CN3C4CCC3CN(c3ccc(C(=O)NC)nc3)C4)cc2[nH]c1=O` was 300 to 3000 nM

Reported IC50 for CCc1cc2ncc(CNC3CC(Nc4ccc(C(=O)NC)nc4)C3)cc2[nH]c1=O (centres unmarked) was ≥ 3000 nM

Shifting focus to the compound that follows.
Reported IC50 for CCc1cc2ncc(CN3CC4(C3)CN(C(=O)c3ccc(F)cc3F)C4)cc2[nH]c1=O [Compound No. 181, formate] was ≥ 3000 nM
